Assay type: physicochemical
CONDITION_CONTEXT: peptide B concentration in saturated aqueous solution (water solubility of the salt)
ENDPOINT_NAME: solubility (µg/mL)
Please give a number only; it is taken to be in µg/mL.

Exercise: // Input: CCNC(=O)[C@@H]1CCCN1C(=O)[C@H](CCCNC(=N)N)NC(=O)[C@H](CC(C)C)NC(=O)[C@@H](CC(C)C)NC(=O)[C@H](Cc1ccc(O)cc1)NC(=O)[C@H](CO)NC(=O)[C@H](Cc1c[nH]c2ccccc12)NC(=O)[C@H](Cc1c[nH]cn1)NC(=O)[C@@H]1CCC(=O)N1 . Output its solubility only.
Solution: 2370

* * *

Format: physicochemical
CONDITION_CONTEXT: water solubility
ENDPOINT_NAME: solubility

Exercise: For CCNC(=O)[C@@H]1CCCN1C(=O)[C@H](CCCNC(=N)N)NC(=O)[C@H](CC(C)C)NC(=O)[C@@H](CC(C)C)NC(=O)[C@H](Cc1ccc(O)cc1)NC(=O)[C@H](CO)NC(=O)[C@H](Cc1c[nH]c2ccccc12)NC(=O)[C@H](Cc1c[nH]cn1)NC(=O)[C@@H]1CCC(=O)N1 [acetate of peptide B, reference compound] , write its solubility.
Solution: ≥ 1000 mg/mL
